target: HIS-TGFβR1 T204D (Homo sapiens (Human), UniProt P36897, T204D); experiment: HTRF probe-displacement assay, HIS-TGFβR1 T204D; settings: 1 hour at room temperature
Sequence (P36897 34-503 T204D): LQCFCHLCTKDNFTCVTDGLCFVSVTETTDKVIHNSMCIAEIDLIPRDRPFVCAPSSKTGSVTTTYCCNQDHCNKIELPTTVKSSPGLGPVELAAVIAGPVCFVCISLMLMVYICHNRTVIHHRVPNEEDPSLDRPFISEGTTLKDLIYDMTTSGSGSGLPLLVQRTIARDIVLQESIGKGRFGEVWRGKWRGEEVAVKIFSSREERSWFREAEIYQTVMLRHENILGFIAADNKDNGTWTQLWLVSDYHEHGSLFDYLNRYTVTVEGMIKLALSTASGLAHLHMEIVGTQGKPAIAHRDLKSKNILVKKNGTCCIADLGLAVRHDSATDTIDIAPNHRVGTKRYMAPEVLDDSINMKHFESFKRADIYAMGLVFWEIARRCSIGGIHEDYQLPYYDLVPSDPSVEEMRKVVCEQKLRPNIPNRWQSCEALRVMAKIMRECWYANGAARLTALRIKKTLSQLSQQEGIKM
value_kind: IC50 (µM)

Examples with their reported IC50 follow.
1. O=C(CCN1CCC(O)CC1)Nc1cc(Nc2nc(-c3cccc(C(F)(F)F)n3)nn3cccc23)ccn1 ... 0.0012
2. CC(O)c1cccc(-c2nc(Nc3ccncc3F)c3cccn3n2)n1 (stereo not drawn) ... 0.07
3. NC(=O)c1cccc(-c2nc(Nc3ccncc3F)c3cccn3n2)n1 ... 0.065

[P] COc1cccc(-c2nc(Nc3ccncc3C(F)F)c3cccn3n2)n1
[Q] COc1cccc(-c2nc(Nc3ccncc3F)c3cc(/C=C/CCO)cn3n2)n1
# return whichever of P and Q has the smaller IC50 API: response body contains the label of the selected item. P

[P] COc1cccc(-c2nc(Nc3ccnc(C)c3)c3cccn3n2)n1
[Q] Cc1cccc(-c2nc(Nc3ccncn3)c3cccn3n2)n1
[R] Fc1cnccc1Nc1nc(-c2ccccn2)nn2ccc(CNCc3ccc4c(c3)OCO4)c12
Endpoint returns the given molecules ordered by ascending IC50. Hello, could you send the labels back in the order asked? Thank you. R, Q, P

[I] CC(=O)Nc1nccc(Nc2nc(-c3cccc(C(F)(F)F)n3)nn3cccc23)c1F
[II] O=C(NCCN1CCCCC1)c1cnccc1Nc1nc(-c2cccc(C(F)(F)F)n2)nn2cccc12
# return whichever of I and II has the smaller IC50 API: response body contains the label of the selected item. I
(I: 0.08 µM, II: 0.12 µM)

[A] Cc1cnc(CNCc2ccn3nc(-c4ccccn4)nc(Nc4ccncc4F)c23)cn1
[B] CN1CCN(CC(=O)Nc2cc(Nc3nc(-c4cccc(C(F)(F)F)n4)nn4cccc34)ccn2)CC1
[C] N#Cc1cc(Nc2nc(-c3cccc(C(F)(F)F)n3)nn3cccc23)ccn1
Endpoint returns the given molecules ordered by ascending IC50. Hello, could you send the labels back in the order asked? Thank you. B, A, C
